Target: human A2a receptor (Homo sapiens, UniProt P29274)
Construct: purchased Perkin-Elmer RBHA2AM400UA; host or cells: HEK293
Sequence (P29274 whole entry): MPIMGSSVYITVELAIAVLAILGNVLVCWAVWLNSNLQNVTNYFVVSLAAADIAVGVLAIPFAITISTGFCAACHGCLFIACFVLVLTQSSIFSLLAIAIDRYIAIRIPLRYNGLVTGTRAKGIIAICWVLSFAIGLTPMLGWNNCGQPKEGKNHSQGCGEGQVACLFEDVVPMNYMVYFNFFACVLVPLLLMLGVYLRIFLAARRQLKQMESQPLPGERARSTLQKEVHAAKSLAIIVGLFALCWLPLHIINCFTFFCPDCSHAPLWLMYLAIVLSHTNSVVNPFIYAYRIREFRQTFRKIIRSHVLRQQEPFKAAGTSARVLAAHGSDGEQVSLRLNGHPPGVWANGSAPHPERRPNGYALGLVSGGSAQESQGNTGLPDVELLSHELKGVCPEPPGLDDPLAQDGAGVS
Assay: A2a receptor competition binding assay (Scintillation Proximity, tritiated radioligand)
Settings: membranes from HEK293 cells expressing the human A2a receptor; 0.5 nM tritiated ligand; SPA beads; one hour at room temperature; read-out: A2a EC50
Please note: EC50 exactly at 9 nM is 0 (no). Only values below 9 nM get 1 (yes).

## Input Is EC50 of COc1cccc2c1nc(N)n1nc(CN3CCN(c4ccc(Cl)cc4)C[C@H]3C)nc21 [Ex-35] strictly below 9 nM?
## Output 1 (yes)

## Input Moving on to the next compound: COc1cccc2c1nc(N)n1nc(CN3CCN(C(=O)OC(C)(C)C)CC3C(F)(F)F)nc21 (stereo not drawn) [Ex-171]
## Output 0 (no)

## Input Moving on to the next compound: COc1cccc2c1nc(N)n1nc(CN3CCN(c4ccc5nc(C6CC6)oc5c4)CC3C)nc21 (stereo not drawn) [Ex-110]
## Output 1 (yes)

## Input Moving on to the next compound: COc1cccc2c1nc(N)n1nc(C(C)N3CCN(c4ccc(F)cc4)CC3C)nc21 (stereo not drawn) [Ex-49]
## Output 1 (yes)

## Input Moving on to the next compound: COc1cccc2c1nc(N)n1nc(CN3CCN(c4cnccn4)CC3C)nc21 (stereo not drawn) [Ex-113]
## Output 0 (no)

## Input Moving on to the next compound: COc1cccc2c1nc(N)n1nc(CN3CCN(c4nncs4)CC3C)nc21 (stereo not drawn) [Ex-75]
## Output 0 (no)

## Input Moving on to the next compound: COc1cccc2c1nc(N)n1nc(CN3CCN(c4nnc(C)[nH]4)CC3C)nc21 (stereo not drawn) [Ex-84]
## Output 0 (no)

## Input Moving on to the next compound: COc1cccc2c1nc(N)n1nc(CN3CCN(C(=O)c4ccc(C(F)(F)F)cc4)CC3(C)C)nc21 [Ex-200]
## Output 0 (no)

## Input Moving on to the next compound: CCC1CN(C(=O)c2ccc(F)cc2)CC(C)N1Cc1nc2c3cccc(OC)c3nc(N)n2n1 (stereo not drawn) [Ex-46]
## Output 0 (no)

## Input Moving on to the next compound: COc1cccc2c1nc(N)n1nc(CN3CCN(c4nsnc4OCCO)CC3C)nc21 (stereo not drawn) [Ex-109]
## Output 1 (yes)

## Input Moving on to the next compound: COc1cccc(N2CCN(Cc3nc4c5cc(F)cc(OC)c5nc(N)n4n3)CC2(C)C)c1 [Ex-186]
## Output 1 (yes)

## Input Moving on to the next compound: COc1cccc2c1nc(N)n1nc(CN3CCN(Cc4ncccc4F)CC3C)nc21 (stereo not drawn) [Ex-19]
## Output 0 (no)

## Input Moving on to the next compound: COCCOc1ccc(N2CCN(Cc3nc4c5cccc(OC)c5nc(N)n4n3)C(C)C2)cc1 (stereo not drawn) [Ex-94]
## Output 1 (yes)

## Input Moving on to the next compound: COc1cccc2c1nc(N)n1nc(CN3CCN(c4cc(F)cc(Cl)c4)CC3C)nc21 (stereo not drawn) [Ex-101]
## Output 1 (yes)

## Input Moving on to the next compound: COc1cccc2c1nc(N)n1nc(CN3CCN(C(=O)c4nc(C5CC5)no4)CC3C)nc21 (stereo not drawn) [Ex-90]
## Output 0 (no)

## Input Moving on to the next compound: COc1cccc2c1nc(N)n1nc(CN3CCN(c4cccc(C)c4)CC3C)nc21 (stereo not drawn) [Ex-65]
## Output 1 (yes)

----------
Target: human A2a receptor (Homo sapiens)
Construct: purchased Perkin-Elmer RBHA2AM400UA; host or cells: HEK293
Assay: A2a receptor competition binding assay (Scintillation Proximity, tritiated radioligand)
Conditions: membranes from HEK293 cells expressing the human A2a receptor; 0.5 nM tritiated ligand; SPA beads; one hour at room temperature; read-out: A2a EC50
readout.kind: pEC50
A value of pEC50 is the negative decimal logarithm of a concentration given in moles per litre.

## Input Request - read-out pEC50 | tested on human A2a receptor (Homo sapiens) | compound COc1cc(Cl)cc(N2CCN(Cc3nc4c5cccc(OC)c5nc(N)n4n3)C(C)C2)c1 (stereo not drawn)
## Output 8.26

## Input Moving on to the next compound: COc1cccc2c1nc(N)n1nc(CN3CCN(c4ccc(F)c(Cl)c4)CC3C)nc21 (stereo not drawn)
## Output 8.67

## Input Moving on to the next compound: COc1cc(F)cc2c1nc(N)n1nc(CN3CC4CCC(C3)N4Cc3ccccc3)nc21
## Output 6.84

## Input Moving on to the next compound: COc1cccc2c1nc(N)n1nc(CN3CCN(c4noc(=O)[nH]4)CC3C)nc21 (stereo not drawn)
## Output 6.20

## Input Moving on to the next compound: COc1cc(F)cc2c1nc(N)n1nc(CN3CCN(c4ccc(F)cc4)CC3C)nc21 (stereo not drawn) [Ex-37]
## Output 7.31

## Input Moving on to the next compound: COc1cccc2c1nc(N)n1nc(CN3CCN(c4ccc(C#N)cc4)CC3C)nc21 (stereo not drawn)
## Output 7.94

## Input Moving on to the next compound: C[C@@H]1CN(c2ccc(F)cc2)CCN1Cc1nc2c3cccc(C(F)(F)F)c3nc(N)n2n1
## Output 6.87

## Input Moving on to the next compound: COc1cccc2c1nc(N)n1nc(CCCN3CCN(c4ccccn4)CC3)nc21
## Output 8.15

## Input Moving on to the next compound: COc1cccc2c1nc(N)n1nc(CN3CCN(c4ccc(N5CCOCC5)cc4)CC3C)nc21 (stereo not drawn)
## Output 8.70

## Input Moving on to the next compound: COc1ccc(N2CCN(Cc3nc4c5cccc(OC)c5nc(N)n4n3)CC2(C)C)cc1
## Output 8.96

## Input Moving on to the next compound: COc1cccc2c1nc(N)n1nc(CN3CCN(C(C)c4ccc(F)cc4F)CC3C)nc21 (stereo not drawn) [Ex-92]
## Output 8.28

## Input Moving on to the next compound: COc1cccc2c1nc(N)n1nc(CN3CCN(Cc4cccc(Cl)c4F)CC3C)nc21 (stereo not drawn)
## Output 8.17

## Input Moving on to the next compound: COc1ccc(N2CCN(Cc3nc4c5cccc(OC)c5nc(N)n4n3)C(C)C2)cc1C(F)(F)F (stereo not drawn)
## Output 8.90

## Input Moving on to the next compound: COc1cccc2c1nc(N)n1nc(CN3CCN(S(=O)(=O)C4CC4)CC34CC4)nc21
## Output 7.61

## Input Moving on to the next compound: COc1cccc2c1nc(N)n1nc(CN3CCN(c4cc(F)cc(F)c4)CC3C)nc21 (stereo not drawn)
## Output 8.33

## Input Moving on to the next compound: COc1cccc2c1nc(N)n1nc(CN3CCN(c4c(C)nn(C)c4C)CC3C)nc21 (stereo not drawn)
## Output 7.94

## Input Moving on to the next compound: COc1cccc2c1nc(N)n1nc(CCN3CCN(c4ccc(F)cn4)C[C@H]3C)nc21
## Output 8.59

## Input Moving on to the next compound: COc1cccc2c1nc(N)n1nc(CN3CCN(c4cccc(N(C)C)c4)CC3C)nc21 (stereo not drawn)
## Output 8.62

----------
Answer each item with its documented EC50.
Biological target: human A2a receptor (Homo sapiens, UniProt P29274)
Construct: purchased Perkin-Elmer RBHA2AM400UA; host or cells: HEK293
Assay: A2a receptor competition binding assay (Scintillation Proximity, tritiated radioligand)
Details: A2a EC50, membranes from HEK293 cells expressing the human A2a receptor; 0.5 nM tritiated ligand; SPA beads; one hour at room temperature
Give a bare numeral; the unit nM is implied.

## Input Request - read-out EC50 | tested on human A2a receptor (Homo sapiens, UniProt P29274) | compound COc1cccc2c1nc(N)n1nc(CN3C4CCC3C3CCC4N3)nc21
## Output 143

## Input Moving on to the next compound: COc1cccc2c1nc(N)n1nc(CN3C4CCC3C3CCC4N3C(=O)c3ccc(C(F)(F)F)cc3)nc21
## Output 8.5

## Input Moving on to the next compound: COc1cccc2c1nc(N)n1nc(CN3C4CCC3C3CCC4N3C(=O)c3ccc(F)cc3)nc21
## Output 11.5

## Input Moving on to the next compound: COc1cc(F)cc2c1nc(N)n1nc(CN3C4CCC3CN(Cc3ccccc3)C4)nc21
## Output 30.9

## Input Moving on to the next compound: COc1cccc2c1nc(N)n1nc(CN3C4CCC3C3CCC4N3c3ccc(C(F)(F)F)cn3)nc21
## Output 4.1
